System: FAO
Experiment: FAO SC 150 / FAO Max
Answer each item with its documented FAO Max: concentration at which the maximum was seen.
Give bare numbers, in μg/ml ug/ml.

Record excerpt, results attached:
molecule	reported
CCCCCCCCC1(C)SC(=O)C=C1OCC(=O)NNc1ccc(Cl)c(Cl)c1 (stereo not shown) [Compound 15]	0.395
CCCCCCCCC1(C)SC(=O)C=C1OCC(=O)NNc1ccc(C(F)(F)F)cc1 (stereo not shown) [Compound 12]	1.56
CCCCCCCCC1(C)SC(=O)C=C1OCC(=O)NNc1ccc(OC)cc1 (stereo not shown) [Compound 13]	0.098

Now look at this one.
Field request: FAO Max: concentration at which the maximum was seen | item: CCCCCCCCC1(C)SC(=O)C=C1OCC(=O)NNc1ccc(Cl)cc1Cl (stereo not shown) [Compound 14]
0.098
